- System: KM12 colon
- MEASUREMENT_DESCRIPTION: NCI tumour cell line growth inhibition, 48 h; in the data active means GI50 below about 0.43 µM; inactive means the rest
Classes used: 1 (yes) = active, 0 (no) = inactive

MOLECULE | ANSWER_LABEL
CNCCOC(=O)/C=C1/CCC2C(C(O)CC3C(C)(C(=O)OC)CCCC23C)C1C (stereo not drawn) | 1 (yes)
CO/N=C(/COc1c(-c2ccccc2)oc2ccccc2c1=O)c1ccc(F)cc1 | 0 (no)
COc1cc(/C=C2\C(=O)Nc3ccccc32)cc(OC)c1OC | 0 (no)
COc1ccc(-n2c(C)nc3c(c(C)nn3-c3ccccc3)c2=O)cc1 | 1 (yes)
Cc1ccc(/C(=C/C=C(C#N)C#N)Sc2ccccn2)cc1 | 0 (no)
O=C1CC/C(=C\COc2ccc3ccc(=O)oc3c2)O1 | 0 (no)
CCOC(=O)C1=C(c2ccccc2)N(c2ccc(OC)cc2)[C@]2(C#N)C(O)=C(Cl)C(Cl)=C(O)[C@]12C#N | 0 (no)
CN(C)CC(NC(NCS)C(=O)NCCNc1ccc(NCCNC(=O)C(NCS)NC(CN(C)C)OCCl)c2c1C(=O)c1c(O)ccc(O)c1C2=O)OCCl (stereo not drawn) | 1 (yes)

###

- Tested on: OVCAR-3 ovarian
- MEASUREMENT_DESCRIPTION: NCI tumour cell line growth inhibition, 48 h
OBSERVABLE: log10(TGI) (log10 of the value in µM)

COMPOUND | OBSERVED_RESULT
CCCCCCOc1ccc(NC2=C(Cl)C(=O)c3ncccc3C2=O)cc1 | 0.80
O=[N+]([O-])c1ccc(N=Nc2c(O)[nH]c3ccccc23)cc1 | 1.55
COc1ccc2c(c1)CC[C@@H]1[C@@H]2CC[C@]2(C)C(=O)/C(=C/c3cc(OC)c(OC)c(OC)c3)C[C@@H]12 | 1.53
O=C1C=CC(=O)c2c1ncc1c2nc2sccn21 | 1.80
CC(C)=CC1CC(C)C2(CCC3(C)CC4C(C(=O)CC4(C)O)/C(C=O)=C\CC32)O1 (stereo unspecified) | -1.30

###

- Tested on: IGROV1 ovarian
- MEASUREMENT_DESCRIPTION: NCI tumour cell line growth inhibition, 48 h
Recorded TGI for the following compounds

COMPOUND | UNIT_OF_MEASUREMENT | SIGN | TGI
NCCCCNC1(c2cc3ccccc3s2)CCCCC1 | µM | = | 13.1
CC[C@@]1(O)C(=O)OCc2c1cc1n(c2=O)Cc2cc3c(NC(=O)CN)cccc3nc2-1 | µM | > | 100
CCC(=O)c1ccc2c(c1)N(CCCN1CCN(CCO)CC1)c1ccccc1S2 | µM | = | 29.1
CC(=O)NC1=CC(=O)c2cc(C)cc(O)c2C1=O | µM | = | 26.4
N=C(N)c1ccc(-c2ccc(-c3ccc(F)cc3)o2)o1 | µM | = | 3.35
COc1cc2ncn(-c3cc(OCc4ccccc4S(C)(=O)=O)c(C#N)s3)c2cc1OC | µM | > | 25
O=C(OCc1ccccc1)N1c2cc([N+](=O)[O-])ccc2C(=O)N2CCC[C@H]2C1O (some centres not stated) | µM | > | 100
COC(=O)C1=Cc2c(cc(OC)c(OC)c2OC)[C@H](c2ccc(OC)c(OC)c2OC)C1C(=O)OC (some centres not stated) | µM | > | 100
CN(C)CCNC(=O)c1nc([N+](=O)[O-])cn1C | µM | > | 100
CNCCOC(=O)/C=C1/CCC2C(C(O)CC3C(C)(C(=O)OC)CCCC23C)C1C (configuration not stated) | µM | = | 0.0971
CO/N=C(/COc1c(-c2ccccc2)oc2ccccc2c1=O)c1ccc(F)cc1 | µM | = | 90.7
N#Cc1c(N2CCN(c3ccc([N+](=O)[O-])cc3)CC2)[n+](=O)c2ccc(Cl)cc2n1[O-] | µM | = | 2.01
Nc1ccc(-n2c(=O)oc3ccc(Cl)cc3c2=O)c(Cl)c1 | µM | = | 36.7
COc1nc2[nH]ccc2c(=O)n1C | µM | > | 100
CN(C)CC(NC(NCS)C(=O)NCCNc1ccc(NCCNC(=O)C(NCS)NC(CN(C)C)OCCl)c2c1C(=O)c1c(O)ccc(O)c1C2=O)OCCl (configuration not stated) | µM | = | 2.49
CCOC(=O)C(C)c1nc2cc(N3CCN(C)CC3)c(F)cc2[nH]c1=O (configuration not stated) | µM | > | 100
COc1ccc(C(=O)CC(c2ccc(OC)c(OC)c2)c2c(O)c3ccccc3oc2=O)cc1OC (configuration not stated) | µM | > | 100
NC1=NC(c2ccc(F)cc2)C2=C(N1)c1ccc3ccccc3c1OCC2 (configuration not stated) | µM | > | 100
CS(=O)(=O)O.[Ag] | µM | = | 13.7
CCC(C)C1(O)OC2CC3(C)OC(=CC3=O)/C(C)=C\C3OC(=O)C1(C)C32 (configuration not stated) | µM | = | 53.5
COc1ccc2c(c1)-c1oc3ccccc3c(=O)c1CO2 | µM | > | 100
CC(=O)OCC1OC(c2nnc(C)o2)=CC(OC(C)=O)C1OC(C)=O (configuration not stated) | µM | > | 100
CC(=N\N=C\c1ccccn1)/C(C)=N/N=C(C)/C(C)=N/N=C(C)/C(C)=N/N=C/c1ccccn1 | µM | > | 100
COc1cc2c(cc1OCCCN1CCN(c3cc(=O)oc4c(C)c(OC)ccc34)CC1)N=C[C@@H]1CCCN1C2=O | µM | = | 6.05
Cc1ccccc1C(C(=O)NC1CCCCC1)N(C(=O)Cn1ccnc1C)c1cccc(F)c1 (configuration not stated) | µM | > | 100
CC1CC2(CCC1OCc1ccccc1)OCCO2 (configuration not stated) | µM | > | 100
Cc1ccc(/C(=C/C=C(C#N)C#N)Sc2ccccn2)cc1 | µM | = | 17.4
c1ccc(Nc2nnc(-c3nsc4ccccc34)o2)cc1 | µM | > | 100
CC(C)CCC[C@@H](C)[C@H]1CCC2C3=CCC4C(=O)C=CC(=O)C4C3CC[C@@]21C (some centres not stated) | µM | = | 0.719
O=C1O[C@]2(c3ccccc3)C(c3ccccc3)=C[C@]2(C(=O)c2ccccc2)C1=O | µM | > | 100
O=C1/C(=C/c2ccco2)NC(=S)N1CN1CCOCC1 | µM | > | 100
CCS(=O)(=O)c1c2cc(OC)ccc2nc2ccc(OC)cc12 | µM | > | 100

###

- Test system: HCT-15 colon
- MEASUREMENT_DESCRIPTION: NCI tumour cell line growth inhibition, 48 h
OBSERVABLE: GI50

COMPOUND | OBSERVABLE | OBSERVED_RESULT
Oc1ccc(CN(Cc2ccc(C(F)(F)F)cc2)Cc2ccc(O)c3ncccc23)c2cccnc12 | GI50 | 0.024 µM
O=[N+]([O-])c1cccc(-c2cc(-c3cc(Br)ccc3O)[nH]n2)c1 | GI50 | 2.53 µM
Cc1ccc(F)cc1NC(=O)c1cc(Cl)ccc1Nc1ccccc1 | GI50 | > 100 µM
Cc1ccc(C[P+](c2ccccc2)(c2ccccc2)c2ccccc2)cc1 | GI50 | 11.7 µM
COc1ccc(-c2csc3c2-n2cccc2C3=O)cc1O | GI50 | < 0.0132 µM
Cc1cn2c(=O)n(c1=O)Cc1ccccc1C2 | GI50 | > 100 µM
Cc1ccc(/C(=C/C=C(C#N)C#N)Sc2ccccn2)cc1 | GI50 | 4.09 µM
Oc1cc(Cl)ccc1Cc1ccc(Cl)cc1O | GI50 | 8.09 µM
CC1(C)Cc2c(Br)c(Br)c(Br)c(OCC(O)CN3CCOCC3)c2O1 (stereo not given) | GI50 | 13.7 µM
CC(C)CCC[C@@H](C)[C@H]1CCC2C3=CCC4C(=O)C=CC(=O)C4C3CC[C@@]21C (stereo not given in full) | GI50 | 0.235 µM

###

- System: DU-145 prostate
- MEASUREMENT_DESCRIPTION: NCI tumour cell line growth inhibition, 48 h
Recorded TGI for the following molecules

MOLECULE | UNIT_OF_MEASUREMENT | SIGN | TGI
C=C(C)[C@@H]1CC[C@]2(C(=O)NCCNCCNCCN)CC[C@]3(C)[C@H](CC[C@@H]4[C@@]5(C)CCC(=O)C(C)(C)[C@@H]5CC[C@]43C)[C@@H]12 | µM | = | 14.1
O=[N+]([O-])c1ccc(N=Nc2c(O)[nH]c3ccccc23)cc1 | µM | = | 36.4
NC(=O)NCCSC1CCCCC1O (stereo not given) | µM | > | 100
CCOC(=O)C(=Cn1c(=S)[nH]c2ccc([N+](=O)[O-])cc21)C(=O)OCC | µM | > | 100
C[C@H](CCC1=NCCN1)[C@H]1CC[C@H]2[C@@H]3CC[C@@H]4C[C@H](O)CC[C@]4(C)[C@H]3C[C@H](O)[C@]12C | µM | = | 28.9

Values compiled from PubChem BioAssay (NCI).
